# run description: in vitro
# Assay type: in vitro ADME
# reported conditions: hepatocytes; dog; 3 μM compound; read-out: Liver Hepatocyte Stability t1/2
quantity measured: half-life at 3 μM

Q: Find the recorded half-life at 3 μM belonging to Cc1ccc(-c2nn3cccnc3c2C(=O)N[C@H]2N=C(c3ccccc3)c3cccc(F)c3NC2=O)cn1 [Example 50] and report it.
Result: > 3.1 h

Q: Find the recorded half-life at 3 μM belonging to Cc1ccn2nc(-c3ccccc3F)c(C(=O)N[C@H]3N=C(c4ccccc4)c4cccc(F)c4NC3=O)c2n1 [Example 23] and report it.
Result: 3.57 h

Q: Find the recorded half-life at 3 μM belonging to O=C(N[C@H]1N=C(c2ccccc2)c2ccccc2NC1=O)c1c(-c2ccccc2F)nn2cccnc12 [Example 2] and report it.
Result: 1.12 h

Q: Find the recorded half-life at 3 μM belonging to Cc1ccc2nc(-c3ccccc3F)c(C(=O)N[C@H]3N=C(c4ccccc4)c4cccc(F)c4NC3=O)n2n1 [Example 19] and report it.
Result: > 3.1 h

* * *

Listed here: items and their measured CC50.
# run description: Cell cytotoxicity (CC50)
# Format: cell-based
# reported conditions: human; mean of at least two experiments

* Cc1ccc(-c2nn3cccnc3c2C(=O)N[C@H]2N=C(c3ccccc3)c3ccccc3NC2=O)c(F)n1 | > 25 µM
* Cc1cncc(-c2nn3cccnc3c2C(=O)N[C@H]2N=C(c3ccccc3)c3cccc(F)c3NC2=O)c1 | > 18.8 µM

// switching to the query molecule
Q: Find the recorded CC50 belonging to `CCc1ccc(-c2nn3cccnc3c2C(=O)N[C@H]2N=C(c3ccccc3)c3ccccc3NC2=O)cn1` and report it.
Result: > 25 µM

* * *

Listed here: items and their measured half-life.
# run description: in vivo
# Format: in vivo, rat (Sprague Dawley)
# reported conditions: Sprague Dawley, in vivo; male SD rat, IV 1 mg/kg; read-out: IV t1/2 (converted)
Write the answer as a number in h, unit excluded.

Q: Find the recorded half-life belonging to `O=C(N[C@H]1N=C(c2ccccc2)c2ccccc2NC1=O)c1c(-c2ccccc2F)nn2cccnc12` and report it.
Result: 3.1

* * *

# run description: in vivo
# Assay type: in vivo, rat (Sprague Dawley)
# reported conditions: male SD rat, IV 1 mg/kg, PO 10 mg/kg
Listed here: items and their measured F.
# answer = value followed by unit

Solved entries:
- O=C(N[C@H]1N=C(c2ccccc2)c2cccc(F)c2NC1=O)c1c(-c2cncc(Cl)c2)nn2cccnc12: 54%
- CCc1ccc(-c2nn3cccnc3c2C(=O)N[C@H]2N=C(c3ccccc3)c3cccc(F)c3NC2=O)c(C)n1: 48%
- Cc1ccc(-c2nn3cccnc3c2C(=O)N[C@H]2N=C(c3ccccc3)c3cccc(F)c3NC2=O)cn1: 152%
- CCc1ccc(-c2nn3cccnc3c2C(=O)N[C@H]2N=C(c3ccccc3)c3cccc(F)c3NC2=O)cn1: 113%

// switching to the query compound
Q: Find the recorded F belonging to `O=C(N[C@H]1N=C(c2ccccc2)c2ccccc2NC1=O)c1c(-c2ccccc2F)nn2cccnc12` and report it.
Result: 103%

* * *

# Test system: Hep-G2 cells
# run description: Cell cytotoxicity (CC50)
# Assay type: cell-based
# reported conditions: mean of at least two experiments
quantity measured: CC50

• Cc1ccc2nc(-c3ccc(N4CCOCC4)nc3)c(C(=O)N[C@H]3N=C(c4ccccc4)c4cccc(F)c4NC3=O)n2n1 = > 25 µM

Q: Item `CN1CCc2ccc(-c3nn4cccnc4c3C(=O)N[C@H]3N=C(c4ccccc4)c4ccccc4NC3=O)cc21` with Hep-G2 cells - CC50?
Result: > 25 µM

Q: Item `O=C(N[C@H]1N=C(c2ccccc2)c2cccc(F)c2NC1=O)c1c(-c2ccc3[nH]ncc3c2)nc2cccnn12` with Hep-G2 cells - CC50?
Result: > 25 µM
